# Tested on: P388
# assay-text: Cytotoxicity against mouse P388 cells
# Assay type: functional
# condition-description: read-out: ED50 (the source's name)
measured-metric: EC50 (µg/mL)

[[record]]
compound = "O=c1c(O)c(-c2ccc(O)cc2)oc2cc(O)cc(O)c12"
recorded_result = 6.7

[[record]]
compound = "O=C(O)c1cc(O)c(O)c(O)c1"
recorded_result = 0.7

[[record]]
compound = "O=c1c(O)c(-c2ccc(O)c(O)c2)oc2cc(O)cc(O)c12"
recorded_result = 40

[[record]]
compound = "CC[C@H](CC[C@@H](C)[C@H]1CC[C@H]2[C@@H]3CC=C4C[C@@H](O[C@@H]5O[C@H](CO)[C@@H](O)[C@H](O)[C@H]5O)CC[C@]4(C)[C@H]3CC[C@]12C)C(C)C [SITOGLUSIDE]"
recorded_result = 53

[[record]]
compound = "O=c1c(O[C@@H]2O[C@H](CO)[C@@H](O)[C@H](O)[C@H]2O)c(-c2ccc(O)cc2)oc2cc(O)cc(O)c12"
recorded_result = 8.2

[[record]]
compound = "CC1(C)CC(O)C[C@@]2(C)OC(=O)C=C12 (stereo partly specified)"
recorded_result = 15

